Biological target: human activated kallikrein enzyme (Homo sapiens, UniProt P03952)
Sequence (P03952 391-638 limits assumed): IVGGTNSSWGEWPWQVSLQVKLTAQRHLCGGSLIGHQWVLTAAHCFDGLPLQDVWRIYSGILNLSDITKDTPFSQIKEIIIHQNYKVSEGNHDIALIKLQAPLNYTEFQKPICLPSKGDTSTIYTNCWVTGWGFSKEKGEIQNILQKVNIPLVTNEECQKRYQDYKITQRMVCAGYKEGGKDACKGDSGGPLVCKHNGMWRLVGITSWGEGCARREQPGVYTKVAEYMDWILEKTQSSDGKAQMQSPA
Sequence (P03952 20-390 partner limits assumed): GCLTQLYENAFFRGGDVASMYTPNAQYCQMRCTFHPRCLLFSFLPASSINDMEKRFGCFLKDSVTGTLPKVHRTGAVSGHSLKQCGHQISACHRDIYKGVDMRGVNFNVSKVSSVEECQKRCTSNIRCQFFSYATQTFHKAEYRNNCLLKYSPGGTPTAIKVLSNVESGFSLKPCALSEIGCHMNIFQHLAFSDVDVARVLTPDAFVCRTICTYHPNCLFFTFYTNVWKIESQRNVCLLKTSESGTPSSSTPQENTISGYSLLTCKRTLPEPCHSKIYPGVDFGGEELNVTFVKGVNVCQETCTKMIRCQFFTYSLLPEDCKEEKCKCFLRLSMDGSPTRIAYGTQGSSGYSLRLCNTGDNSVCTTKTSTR
Assay: Plasma kallikrein inhibition, fluorogenic PFR-AMC substrate, 500 pM activated kallikrein format
Type: biochemical
Conditions: 500 pM activated kallikrein, 300 uM PFR-AMC, 30 min preincubation, 10 min reaction; read-out: Primary Dose Response Assay: Average EC50
pEC50: −log10 of the molar value.
quantity_measured: pEC50

For reference, reported pEC50 for Cc1ccnc([C@H]2C[C@@H]2C(=O)Nc2ncc(F)c(NCc3cn4cc(C5CC5)cc(N5CC(=O)N(CCOCc6ccccc6)C5=O)c4n3)n2)n1 (racemic) stands at > 9.00

For reference, reported pEC50 for O=C(Nc1cc(NCc2cn3cc(C4CC4)ccc3n2)ncn1)[C@H]1C[C@@H]1c1cc(Cl)ncn1 (racemic) stands at 6.00 to 7.00

For reference, reported pEC50 for Cc1cc(NCc2cn3cc(C4CC4)ccc3n2)cc(NC(=O)[C@H]2C[C@@H]2c2cc(Cl)ccc2C#N)n1 (racemic) stands at > 9.00

For reference, reported pEC50 for COc1ccc(=O)n([C@H]2C[C@@H]2C(=O)Nc2cc(NCc3cn4cc(C5CC5)ccc4n3)ncn2)c1 (racemic) stands at < 5.22

For reference, reported pEC50 for O=C(Nc1cc(NCc2cn3cc(C4CC4)ccc3n2)ncn1)[C@H]1C[C@@H]1c1cc(Cl)cnn1 (racemic) stands at 6.00 to 7.00

For reference, reported pEC50 for Cc1ccnc([C@H]2C[C@@H]2C(=O)Nc2cc(OCc3cn4cc(C5CC5)cc(N5CC(=O)N(C)C5=O)c4n3)cnn2)n1 stands at > 9.00

Value source: patent US20240228488A1
